# maps each entry to its pIC50
- Test system: ShHTLs (10 HTL proteins in S. hermonthica)
- assay.details: YLG-based competition assay on HTL proteins of S. hermonthica
- Format: biochemical, Striga hermonthica
- recorded.conditions: ShHTL3; average of 3 replicates; Supplementary Fig. 27; read-out: IC50, average
Units for pIC50: none; it is -log10 of a concentration expressed in mol/L.

Record summary for CC1=CC(OC(=O)N2CCN(C(=O)COc3ccc(Br)cc3C)CC2)CC1=O (stereo not shown) : reported pIC50 = 4.47

Record summary for CC1=C[C@@H](OC(=O)N2CCN(C(=O)COc3ccc(Br)cc3C)CC2)OC1=O [(R)-4a] : reported pIC50 = 4.17

Record summary for CC1=C[C@H](O/C=C2/C(=O)O[C@@H]3c4ccccc4C[C@H]23)OC1=O (racemic) [rac-GR24, reference compound] : reported pIC50 = 5.08

Record summary for CC1=CC(OC(=O)N2CCN(C(=O)COc3ccc(Br)cc3C)CC2)OC1=O (stereo not shown) : reported pIC50 = 4.37

Alright, here's another compound for you.
Record summary for CC1=C[C@H](OC(=O)N2CCN(C(=O)COc3ccc(Br)cc3C)CC2)OC1=O [(S)-4a] : reported pIC50 = 4.81

###

# maps each entry to its pIC50
- System: ShHTLs (10 HTL proteins in S. hermonthica)
- assay.details: YLG-based competition assay on HTL proteins of S. hermonthica
- Format: biochemical, Striga hermonthica
- recorded.conditions: ShHTL9; YLG competition; Supplementary Fig. 27; read-out: IC50, replicate 2
Units for pIC50: none; it is -log10 of a concentration expressed in mol/L.

Below are worked cases with known answers.
Record summary for CC1=CC(OC(=O)N2CCN(C(=O)COc3ccc(Br)cc3C)CC2)OC1=O (stereo not shown) : reported pIC50 = 4.66

Record summary for CC1=CC(CC(=O)N2CCN(C(=O)COc3ccc(Br)cc3C)CC2)OC1=O (stereo not shown) : reported pIC50 = 4.61

Alright, here's another molecule for you.
Record summary for CC1=C[C@H](OC(=O)N2CCN(C(=O)COc3ccc(Br)cc3C)CC2)OC1=O [(S)-4a] : reported pIC50 = 4.72

###

- Tested on: ShHTLs (10 HTL proteins in S. hermonthica)
- assay.details: YLG-based competition assay on HTL proteins of S. hermonthica
- Assay type: biochemical, Striga hermonthica
- recorded.conditions: ShHTL4; YLG competition; Supplementary Fig. 27; read-out: IC50, replicate 1
observed.property: pIC50
Units for pIC50: none; it is -log10 of a concentration expressed in mol/L.

Record summary for CC1=CC(OC(=O)N2CCN(C(=O)COc3ccc(Br)cc3C)CC2)N(C)C1=O (stereo not shown) [4h] : reported pIC50 = 4.90

Record summary for CC1=CC(OC(=O)N2CCN(C(=O)COc3ccc(Br)cc3C)CC2)OC1=O (stereo not shown) [4a] : reported pIC50 = 5.21

Record summary for CC1=CC(CC(=O)N2CCN(C(=O)COc3ccc(Br)cc3C)CC2)OC1=O (stereo not shown) [4i] : reported pIC50 = 4.83

More entries:
Record summary for CC1=C[C@H](O/C=C2/C(=O)O[C@@H]3c4ccccc4C[C@H]23)OC1=O (racemic) [rac-GR24, reference compound] : reported pIC50 = 6.62

Record summary for CC1=C[C@H](OC(=O)N2CCN(C(=O)COc3ccc(Br)cc3C)CC2)OC1=O [(S)-4a] : reported pIC50 = 5.66

Record summary for CC1=CC(OC(=O)N2CCN(C(=O)COc3ccc(Br)cc3C)CC2)CC1=O (stereo not shown) [4g] : reported pIC50 = 4.72

Record summary for CC1=C[C@@H](OC(=O)N2CCN(C(=O)COc3ccc(Br)cc3C)CC2)OC1=O [(R)-4a] : reported pIC50 = 4.64

###

- Tested on: ShHTLs (10 HTL proteins in S. hermonthica)
- assay.details: YLG-based competition assay on HTL proteins of S. hermonthica
- Assay type: biochemical, Striga hermonthica
- recorded.conditions: ShHTL9; average of 3 replicates; Supplementary Fig. 27; read-out: IC50, average
observed.property: pIC50
Units for pIC50: none; it is -log10 of a concentration expressed in mol/L.

Record summary for CC1=C[C@@H](OC(=O)N2CCN(C(=O)COc3ccc(Br)cc3C)CC2)OC1=O [(R)-4a] : reported pIC50 = 4.33

Alright, here's another compound for you.
Record summary for CC1=CC(CC(=O)N2CCN(C(=O)COc3ccc(Br)cc3C)CC2)OC1=O (stereo not drawn) : reported pIC50 = 4.70

###

- measurement.target: UniProtKB A0A0M3PNA2
- assay.details: Competitive inhibition of ShHTL7 with Yoshimulactone Green (YLG) as substrate
- Assay type: biochemical
- recorded.conditions: ShHTL7; YLG competition; Supplementary Fig. 27; read-out: IC50, replicate 2
observed.property: pIC50
Units for pIC50: none; it is -log10 of a concentration expressed in mol/L.

Below are worked cases with known answers.
Considering CC1=C[C@H](OC(=O)N2CCN(C(=O)COc3ccc(Br)cc3C)CC2)OC1=O [(S)-4a] , its pIC50 with UniProtKB A0A0M3PNA2 was recorded as 6.08

Considering CC1=CC(CC(=O)N2CCN(C(=O)COc3ccc(Br)cc3C)CC2)OC1=O (stereo not shown) , its pIC50 with UniProtKB A0A0M3PNA2 was recorded as 5.28

Considering CC1=C[C@H](O/C=C2/C(=O)O[C@@H]3c4ccccc4C[C@H]23)OC1=O (racemic) [rac-GR24, reference compound] , its pIC50 with UniProtKB A0A0M3PNA2 was recorded as 6.07

Considering CC1=CC(OC(=O)N2CCN(C(=O)COc3ccc(Br)cc3C)CC2)N(C)C1=O (stereo not shown) , its pIC50 with UniProtKB A0A0M3PNA2 was recorded as 5.26

Considering CC1=CC(OC(=O)N2CCN(C(=O)COc3ccc(Br)cc3C)CC2)CC1=O (stereo not shown) , its pIC50 with UniProtKB A0A0M3PNA2 was recorded as 5.79

More entries:
Considering CC1=C[C@@H](OC(=O)N2CCN(C(=O)COc3ccc(Br)cc3C)CC2)OC1=O [(R)-4a] , its pIC50 with UniProtKB A0A0M3PNA2 was recorded as 4.47

Considering CC1=CC(OC(=O)N2CCN(C(=O)COc3ccc(Br)cc3C)CC2)OC1=O (stereo not shown) , its pIC50 with UniProtKB A0A0M3PNA2 was recorded as 5.87

###

- Test system: ShHTLs (10 HTL proteins in S. hermonthica)
- assay.details: YLG-based competition assay on HTL proteins of S. hermonthica
- Format: biochemical, Striga hermonthica
- recorded.conditions: ShHTL6; average of 3 replicates; Supplementary Fig. 27; read-out: IC50, average
# maps each entry to its pIC50
Units for pIC50: none; it is -log10 of a concentration expressed in mol/L.

Below are worked cases with known answers.
Record summary for CC1=CC(CC(=O)N2CCN(C(=O)COc3ccc(Br)cc3C)CC2)OC1=O (stereo not shown) [4i] : reported pIC50 = 4.17

Record summary for CC1=CC(OC(=O)N2CCN(C(=O)COc3ccc(Br)cc3C)CC2)OC1=O (stereo not shown) [4a] : reported pIC50 = 4.63

Record summary for CC1=CC(OC(=O)N2CCN(C(=O)COc3ccc(Br)cc3C)CC2)CC1=O (stereo not shown) [4g] : reported pIC50 = 4.30

More entries:
Record summary for CC1=C[C@H](OC(=O)N2CCN(C(=O)COc3ccc(Br)cc3C)CC2)OC1=O [(S)-4a] : reported pIC50 = 5.09

Record summary for CC1=C[C@H](O/C=C2/C(=O)O[C@@H]3c4ccccc4C[C@H]23)OC1=O (racemic) [rac-GR24, reference compound] : reported pIC50 = 5.67

###

- measurement.target: ShHTL7 (Striga hermonthica, UniProt A0A0M3PNA2)
- Sequence (A0A0M3PNA2 entry or part of it): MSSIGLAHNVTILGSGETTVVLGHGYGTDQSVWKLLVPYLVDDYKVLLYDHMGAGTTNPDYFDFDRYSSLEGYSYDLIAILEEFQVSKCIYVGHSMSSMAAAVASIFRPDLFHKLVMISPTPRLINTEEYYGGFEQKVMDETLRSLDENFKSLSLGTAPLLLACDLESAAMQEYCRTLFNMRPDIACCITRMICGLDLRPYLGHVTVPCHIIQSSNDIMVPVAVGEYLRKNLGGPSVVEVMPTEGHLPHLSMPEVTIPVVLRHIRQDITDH
- assay.details: biochemical
- Assay type: binding
observed.property: Kd (nM)
Write the value in nM as a bare number.

Below are worked cases with known answers.
Record summary for O=C(c1cccs1)N1CCN(CC2CC=CCC2)CC1 (stereo not drawn) : reported Kd = 10500

Record summary for O=C(COc1c(F)c(F)c(F)c(F)c1F)N1CCN(CC2CC3C=CC2C3)CC1 (stereo not drawn) : reported Kd = 470

Alright, here's another compound for you.
Record summary for Cc1ccc(OCC(=O)N2CCN(CC3CC4C=CC3C4)CC2)cc1 (stereo not drawn) : reported Kd = 960

###

- measurement.target: ShHTL7 T142K (Striga hermonthica, UniProt A0A0M3PNA2, T142K)
- Sequence (A0A0M3PNA2 whole entry T142K): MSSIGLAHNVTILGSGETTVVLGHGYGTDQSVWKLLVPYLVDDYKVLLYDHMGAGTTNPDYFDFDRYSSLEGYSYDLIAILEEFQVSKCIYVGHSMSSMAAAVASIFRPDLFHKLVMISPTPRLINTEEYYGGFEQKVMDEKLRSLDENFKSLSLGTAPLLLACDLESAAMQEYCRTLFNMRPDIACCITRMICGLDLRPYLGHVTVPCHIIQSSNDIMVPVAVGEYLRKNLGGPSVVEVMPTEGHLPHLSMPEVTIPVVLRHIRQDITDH
- assay.details: YLG competitive inhibition, ShHTL7 mutant T142K
- Text: To clarify the dynamics of how the catalytic triad affects hydrolysis by ShHTL7, we performed MD simulations to study the differences between (R)-4a and (S)-4a (Supplementary Fig. 21). […] The excitation and emission wavelengths of YLG are 480 and 520 nm, respectively. We used a fluorescence spectrophotometer (CARY Eclipse) to detect the fluorescence intensity change of YLG during the enzymatic hydrolysis assay process. […]
# maps each entry to its IC50
Write the value in nM as a bare number.

Record summary for CC1=C[C@H](OC(=O)N2CCN(C(=O)COc3ccc(Br)cc3C)CC2)OC1=O [(S)-4a] : reported IC50 = 203

Record summary for CC1=C[C@@H](OC(=O)N2CCN(C(=O)COc3ccc(Br)cc3C)CC2)OC1=O [(R)-4a] : reported IC50 = 4130

Hello, the source for this data is paper PMC9271048, in case you need it.
